measured.property: melting point

1. COc1cc(Nc2ncc3c(n2)C(c2nc(C)no2)CCC3)ccc1-n1cnc(C)c1 (centres unmarked) ... 212 to 214 °C
2. Cc1cn(-c2ccc(Nc3ncc4c(n3)C(C)(c3ccccc3)CCC4)cc2F)cn1 (centres unmarked) ... 157 to 158 °C
3. COc1cc(Nc2ncc3c(n2)C(c2ccc(Cl)cc2)CCC3)ccc1-n1cnc(C)c1 (centres unmarked) ... 210 to 212 °C
4. CCOC(=O)C1CCc2cnc(Nc3ccc(-n4cnc(C)c4)c(OC)c3)nc21 (centres unmarked) ... 150 to 153 °C
5. COc1cc(Nc2nc(O)c3c(n2)C(c2ccccc2)CN(C)C3)ccc1-n1cnc(C)c1 (centres unmarked) ... 152 to 155 °C

For every record below, what is its melting point?
1. Cc1cn(-c2ccc(Nc3nc4c(s3)CCCC4c3ccc(Cl)cc3Cl)cc2F)cn1 (centres unmarked)
2. Cc1cn(-c2ccc(Nc3nc4c(s3)CCCC4c3ccc(C)c(C(F)(F)F)c3)cc2F)cn1 (centres unmarked)
3. COc1cc(Nc2ncc3c(n2)C(c2ccc(F)cc2)CCC3)ccc1-n1cnc(C)c1 (centres unmarked)
4. COc1cc(Nc2nc3c(s2)CCCC3c2ccccc2)ccc1-c1nc(C)no1 (centres unmarked)
5. Cc1cn(-c2ccc(Nc3nc4c(s3)CCCC4c3ccc(OC(F)(F)F)cc3)cc2F)cn1 (centres unmarked)

["136 to 139 °C", "160 to 163 °C", "191 to 193 °C", "228 to 231 °C", "148 to 151 °C"]

For every record below, what is its melting point?
1. Cc1cn(-c2ccc(Nc3ncc4c(n3)C(c3cc(C(F)(F)F)cc(C(F)(F)F)c3)CCC4)cc2F)cn1 (centres unmarked)
2. CCOC(=O)C1CCCc2cnc(Nc3ccc(-n4cnc(C)c4)c(F)c3)nc21 (centres unmarked)
3. Cc1cn(-c2ccc(Nc3ncc4c(n3)C(c3cccc(C(F)(F)F)c3)CCC4)cc2F)cn1 (centres unmarked)
4. COc1cc(Nc2ncc3c(n2)C(C(=O)N2CCCC2)CCC3)ccc1-n1cnc(C)c1 (centres unmarked)

200 to 202 °C
142 to 145 °C
207 to 209 °C
94 to 95 °C

###

test system: γ-secretase; assay: Cellular γ-secretase assay (Aβ42 secretion); assay type: cell-based; conditions: inhibition of Aβ42 secretion; human neuroglioma H4 cells overexpressing human APP; 22 hrs incubation; read-out: EC50 in vitro
Please respond with reported EC50 for every item in the list.
Give bare numbers, in nM.

Observe how each entry below is paired with its result.
1) COc1cc(Nc2nc3c(s2)CCCC3c2ccc(C)c(C(F)(F)F)c2)ccc1-n1cnc(C)c1 (stereo not shown) [Example 9] ... 100
2) COc1cc(Nc2nc3c(s2)CCCC3(CC#N)c2ccc(Cl)cc2)ccc1-n1cnc(C)c1 (stereo not shown) [Example 19] ... 260
3) COc1cc(Nc2nc3c(s2)CCCC3c2ccc(OC(F)(F)F)cc2)ccc1-n1cnc(C)c1 (stereo not shown) [Example 10] ... 100
4) COc1cc(Nc2nc3c(s2)CCCC3c2cc(Cl)ccc2Cl)ccc1-n1cnc(C)c1 (stereo not shown) [Example 26] ... 80
5) COc1cc(Nc2ncc3c(n2)C(c2ccccc2)CN(C(C)=O)C3)ccc1-n1cnc(C)c1 (stereo not shown) [Example 42] ... 500
6) COc1cc(Nc2nc3c(s2)CCCC3c2cc(C)ccc2C)ccc1-n1cnc(C)c1 (stereo not shown) [Example 13] ... 120

For every record below, what is its EC50?
1. CCN1Cc2cnc(Nc3ccc(-n4cnc(C)c4)c(OC)c3)nc2C(c2ccccc2)C1 (stereo not shown) [Example 44]
2. COc1cc(Nc2nc3c(s2)CCCC3c2ccccc2)ccc1-c1cnc(C)s1 (stereo not shown) [Example 92]

1. 320
2. 252

For every record below, what is its EC50?
1. Cc1cn(-c2ccc(Nc3nc4c(s3)CCCC4c3ccccc3)cc2C#N)cn1 (stereo not shown) [Example 21]
2. COc1cc(Nc2nc3c(s2)CCCC3c2ccc(C)c(F)c2)ccc1-n1cnc(C)c1 (stereo not shown) [Example 15]

1. 120
2. 90
